Where do the numbers come from? From ChEMBL document CHEMBL1125331.

tested on: Rattus norvegicus; experiment: Effect evaluated in vivo on 5-HTP accumulation in limbic system at a dose 12.5 umol/kg (s.c.); format: functional
observation type: Control (%)

COc1cccc2c1CCN(C)CC2 ... 86
CCN1CCc2cccc(O)c2CC1 ... 48
CN1CCc2cccc(O)c2CC1 ... 72
COc1cccc2c1CCN(CC1CC1)CC2 ... 56
CCCN1CCc2cccc(OC)c2CC1 ... 42

---

Recorded measurements of pIC50, one per entry
molecular target: D(2) dopamine receptor (Rattus norvegicus, UniProt P61169); assay: Inhibitory activity against Dopamine receptor D2 in rats using [3H]spiperone as radioligand
Sequence (P61169 whole entry): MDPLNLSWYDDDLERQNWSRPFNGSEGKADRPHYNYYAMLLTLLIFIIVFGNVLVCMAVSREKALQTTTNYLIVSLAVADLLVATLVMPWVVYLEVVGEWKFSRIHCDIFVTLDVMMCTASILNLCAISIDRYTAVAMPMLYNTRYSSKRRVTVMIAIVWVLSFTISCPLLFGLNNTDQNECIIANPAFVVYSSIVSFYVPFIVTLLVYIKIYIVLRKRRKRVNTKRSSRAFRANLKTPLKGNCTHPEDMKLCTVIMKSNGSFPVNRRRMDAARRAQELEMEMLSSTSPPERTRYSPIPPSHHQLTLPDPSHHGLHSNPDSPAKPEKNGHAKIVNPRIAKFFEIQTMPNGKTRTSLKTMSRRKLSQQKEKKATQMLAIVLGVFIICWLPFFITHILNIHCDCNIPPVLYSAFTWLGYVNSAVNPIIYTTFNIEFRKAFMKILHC
pIC50: −log10 of the molar value.
observation type: pIC50

CCCN1CCc2ccc(O)cc2CC1 ... 5.00
COc1cccc2c1CCN(CC1CC1)CC2 ... 5.12
CCN1CCc2cccc(O)c2CC1 ... 4.85
CCCN1CCc2c(Br)ccc(OC)c2CC1 ... 6.17
CCCCN1CCc2cccc(O)c2CC1 ... 4.92
CCCN1CCc2cccc(OC)c2CC1 ... 5.44
